Values were extracted from PubChem BioAssay (NCI).

- System: NCI-H460 lung
- run-description: NCI tumour cell line growth inhibition, 48 h
For each of the molecules below, state its TGI.
One number for each entry, in µM.

Go through the list and state TGI for each entry.
1. O=C1OCC(C#Cc2ccccc2)=C1Br
2. Cc1ccc(-c2nc3nc(-c4ccc(Br)cc4)nc(N4CCCNCC4)c3o2)cc1

## Output
48.5
3.61

----------
- Tested on: HCC-2998 colon
- run-description: NCI tumour cell line growth inhibition, 48 h; in the data active = GI50 below about 0.43 µM; inactive = the rest
Return exactly one item of active, inactive

O=C1OCC(C#Cc2ccccc2)=C1Br    inactive
COc1cc2c(cc1O)CC[C@@H]1[C@@H]2CC[C@]2(C)[C@@H](OCCCN(C)C)CC[C@@H]12    active

Note: attention shifts to another entry.
## Input Would you mind telling me which call this test gave `CC(C)OP(=O)(OC(C)C)c1ncc(-c2ccc(C(F)(F)F)cc2)c(NC2CCCCCC2)n1` ?
## Output inactive
